Origin of the recorded values: ChEMBL document CHEMBL1140797

target: Coagulation factor X (Homo sapiens); assay: Inhibition of human F10a by fluorescence assay
Sequence (P00742 41-179 limits assumed): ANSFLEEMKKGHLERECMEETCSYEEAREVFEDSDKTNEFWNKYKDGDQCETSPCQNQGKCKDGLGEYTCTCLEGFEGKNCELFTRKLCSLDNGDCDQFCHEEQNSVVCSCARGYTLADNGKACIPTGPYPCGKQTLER
Sequence (P00742 235-488 limits assumed): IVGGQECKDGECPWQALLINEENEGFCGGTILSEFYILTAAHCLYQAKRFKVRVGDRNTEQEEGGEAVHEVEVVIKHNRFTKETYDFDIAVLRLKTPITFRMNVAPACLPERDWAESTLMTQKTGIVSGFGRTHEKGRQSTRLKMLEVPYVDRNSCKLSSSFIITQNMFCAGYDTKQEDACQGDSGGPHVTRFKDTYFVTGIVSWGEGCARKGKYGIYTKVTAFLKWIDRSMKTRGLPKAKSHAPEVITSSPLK
value type: Ki (nM)

Observe how each entry below is paired with its result.
• CS(=O)(=O)c1ccccc1-c1ccc(N2CCC(NS(=O)(=O)c3cc4cc(Cl)ccc4o3)C2=O)c(F)c1 (configuration not stated) = 6.2
• N#Cc1ncccc1-c1ccc(N2CCC(NS(=O)(=O)c3ccc4cc(Cl)ccc4c3)C2=O)c(F)c1 (configuration not stated) = 0.7
• O=C1C(NS(=O)(=O)/C=C/c2ccc(Cl)s2)CCN1c1ccc(-c2ccccc2C(F)(F)F)cn1 (configuration not stated) = 6

(P) Cn1ccnc1-c1ccc(N2CCC(NS(=O)(=O)c3ccc4cc(Cl)ccc4c3)C2=O)c(F)c1 (configuration not stated)
(Q) N#Cc1ccccc1-c1ccc(N2CCC(NS(=O)(=O)/C=C/c3ccc(Cl)s3)C2=O)nc1 (configuration not stated)
// select label with min value of measured Ki from [ P , Q ] Give the label of your selection.
P

====

target: Albumin (Homo sapiens); assay: Binding affinity to human serum albumin; assay type: ADME; conditions: isolated protein
Sequence (P02768 whole entry): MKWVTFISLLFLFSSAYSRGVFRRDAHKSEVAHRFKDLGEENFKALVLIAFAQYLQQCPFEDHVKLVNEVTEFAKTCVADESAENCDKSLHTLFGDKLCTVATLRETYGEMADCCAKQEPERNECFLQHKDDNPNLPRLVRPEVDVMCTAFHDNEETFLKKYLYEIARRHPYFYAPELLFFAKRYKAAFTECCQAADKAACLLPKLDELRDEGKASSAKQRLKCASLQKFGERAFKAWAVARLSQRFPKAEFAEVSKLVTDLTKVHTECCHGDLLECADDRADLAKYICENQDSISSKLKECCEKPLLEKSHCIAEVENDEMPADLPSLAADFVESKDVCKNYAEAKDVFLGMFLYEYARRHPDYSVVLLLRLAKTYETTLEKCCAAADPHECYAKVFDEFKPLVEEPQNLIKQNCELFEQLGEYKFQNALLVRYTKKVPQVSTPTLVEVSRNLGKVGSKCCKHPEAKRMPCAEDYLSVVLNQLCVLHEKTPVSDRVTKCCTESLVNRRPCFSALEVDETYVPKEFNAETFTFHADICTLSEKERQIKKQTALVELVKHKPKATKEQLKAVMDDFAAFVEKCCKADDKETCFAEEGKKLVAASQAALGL
value type: Activity (%)

• NS(=O)(=O)c1ccccc1-c1ccc(N2CCC(NS(=O)(=O)/C=C/c3ccc(Cl)s3)C2=O)nc1 (stereo unspecified) = 98
• CS(=O)(=O)Nc1ccccc1-c1ccc(N2CCC(NS(=O)(=O)/C=C/c3ccc(Cl)s3)C2=O)nc1 (stereo unspecified) = 98.2
• CS(=O)(=O)c1ccccc1-c1ccc(N2CCC(NS(=O)(=O)c3cc4ccc(Cl)cc4o3)C2=O)c(F)c1 (stereo unspecified) = 99.6
• CS(=O)(=O)c1ccccc1-c1ccc(N2CCC(NS(=O)(=O)c3ccc4cc(Cl)ccc4c3)C2=O)c(F)c1 (stereo unspecified) = 98.8
• CS(=O)(=O)c1ccccc1-c1ccc(N2CCC(NS(=O)(=O)/C=C/c3ccc(Cl)s3)C2=O)nc1 (stereo unspecified) = 97.6
• CS(=O)(=O)c1ccccc1-c1ccc(N2CCC(NS(=O)(=O)/C=C/c3ccc(Cl)s3)C2=O)c(F)c1 (stereo unspecified) = 97.6

====

experiment: Oral bioavailability in Sprague-Dawley rat; format: ADME, organism-based; settings: in vivo
value type: bioavailability (%)

• CS(=O)(=O)c1ccccc1-c1ccc(N2CCC(NS(=O)(=O)/C=C/c3ccc(Cl)s3)C2=O)nc1 (stereo not drawn) = 29

(a) CS(=O)(=O)c1ccccc1-c1ccc(N2CCC(NS(=O)(=O)/C=C/c3ccc(Cl)cc3)C2=O)c(F)c1 (stereo not drawn)
(b) CS(=O)(=O)c1ccccc1-c1ccc(N2CCC(NS(=O)(=O)c3ccc4cc(Cl)ccc4c3)C2=O)c(F)c1 (stereo not drawn)
Between the entries labeled a and b , whose measured bioavailability is lower? Use the label to indicate which entry you chose.
b
(b: 10%, a: 41%)

====

assay: Plasma clearance in Sprague-Dawley rat; format: ADME, organism-based
value type: clearance (mL/min/kg)

* CS(=O)(=O)c1ccccc1-c1ccc(N2CCC(NS(=O)(=O)c3ccc4cc(Cl)ccc4c3)C2=O)c(F)c1 (stereo not drawn) | 20

(1) CS(=O)(=O)c1ccccc1-c1ccc(N2CCC(NS(=O)(=O)/C=C/c3ccc(Cl)cc3)C2=O)c(F)c1 (stereo not drawn)
(2) CS(=O)(=O)c1ccccc1-c1ccc(N2CCC(NS(=O)(=O)/C=C/c3ccc(Cl)s3)C2=O)nc1 (stereo not drawn)
Smaller clearance value? Options are 1 and 2 Answer = label.
1
(1: 9.2 mL/min/kg, 2: 20 mL/min/kg)

====

test: Half life in Sprague-Dawley rat; format: ADME, organism-based; conditions: in vivo
value type: half-life (min)

- CS(=O)(=O)c1ccccc1-c1ccc(N2CCC(NS(=O)(=O)/C=C/c3ccc(Cl)cc3)C2=O)c(F)c1 (stereo not drawn): 48

(1) CS(=O)(=O)c1ccccc1-c1ccc(N2CCC(NS(=O)(=O)c3ccc4cc(Cl)ccc4c3)C2=O)c(F)c1 (stereo not drawn)
(2) CS(=O)(=O)c1ccccc1-c1ccc(N2CCC(NS(=O)(=O)/C=C/c3ccc(Cl)s3)C2=O)nc1 (stereo not drawn)
Which numeric half-life is bigger, that of 1 or that of 2 ? Your answer should be the label attached to the chosen record.
1

====

target: UniProt P00742; test: Inhibition of human F10a by fluorescence assay
pKi: −log10 of the molar value.
value type: pKi

* CC(C)Oc1ccccc1-c1ccc(N2CCC(NS(=O)(=O)/C=C/c3ccc(Cl)s3)C2=O)nc1 (configuration not stated) | 6.74
* O=C1C(NS(=O)(=O)c2ccc3cc(Cl)ccc3c2)CCN1c1ccc(-c2ccccc2)cn1 (configuration not stated) | 7.10
* O=C1C(NS(=O)(=O)c2ccc3cc(Cl)ccc3c2)CCN1c1ccc(-c2cccnc2)cc1F (configuration not stated) | 8.20

(A) CS(=O)(=O)c1ccccc1-c1ccc(N2CCC(NS(=O)(=O)c3cc4ccc(Cl)cc4o3)C2=O)c(F)c1 (configuration not stated)
(B) CN(C)S(=O)(=O)c1ccccc1-c1ccc(N2CCC(NS(=O)(=O)/C=C/c3ccc(Cl)s3)C2=O)nc1 (configuration not stated)
Pick the one with the larger pKi: A vs B Give the chosen item's label as your response.
B
(B: 9.40, A: 8.96)

(1) CS(=O)(=O)c1ccccc1-c1ccc(N2CCC(NS(=O)(=O)/C=C/c3cc4ccc(Cl)cc4s3)C2=O)c(F)c1 (configuration not stated)
(2) O=C1C(NS(=O)(=O)c2ccc3cc(Cl)ccc3c2)CCN1c1ccc(-n2cccn2)cc1F (configuration not stated)
(3) O=C1C(NS(=O)(=O)c2ccc3cc(Cl)ccc3c2)CCN1c1ccc(-c2ccoc2)cc1F (configuration not stated)
(4) CN(c1ccccc1-c1ccc(N2CCC(NS(=O)(=O)/C=C/c3ccc(Cl)s3)C2=O)nc1)S(C)(=O)=O (configuration not stated)
(5) O=C1C(NS(=O)(=O)c2ccc3cc(Cl)ccc3c2)CCN1c1ccc(-n2ccnc2)cc1F (configuration not stated)
Rank the items in ascending order with respect to pKi. Respond with an ordered listing of the labels, as requested.
3, 4, 5, 2, 1

(a) CN(C)C(=O)c1ccccc1-c1ccc(N2CCC(NS(=O)(=O)/C=C/c3ccc(Cl)s3)C2=O)nc1 (configuration not stated)
(b) CS(=O)(=O)c1ccccc1-c1ccc(N2CCC(NS(=O)(=O)c3cc4nc(Cl)ccc4s3)C2=O)c(F)c1 (configuration not stated)
(c) O=C1C(NS(=O)(=O)c2ccc3cc(Cl)ccc3c2)CCN1c1ccc(-c2ccccc2)cc1F (configuration not stated)
Your job: order these 3 records by pKi, ascending. Your task in answering is to list the labels in the requested order.
c, a, b

(P) O=C1C(NS(=O)(=O)c2ccc3cc(Cl)ccc3c2)CCN1c1ccc(-c2ccncc2)cc1F (configuration not stated)
(Q) Cn1cnc(-c2ccc(N3CCC(NS(=O)(=O)c4ccc5cc(Cl)ccc5c4)C3=O)c(F)c2)c1 (configuration not stated)
Between P and Q , which one has the lower reported pKi value? Record your answer as the label of the chosen record.
Q
(Q: 7.81, P: 8.05)
